Test system: sarcosine oxidase
protocol.description: Influence of metal ions (metal chloride salts) on sarcosine oxidase activity
Assay type: biochemical
condition.summary: sarcosine oxidase activity with metal chloride salt, final concentration 2 mM; None = 100; Table 1 (first example)
So I've got a bunch of compounds here, and I need their Relative activity (%) values.
Please state the number and follow it with the unit.

Illustrative cases are given below, each with its answer.
{"compound": "[Cl][Cd][Cl]", "Relative activity (%)": "7%"}
{"compound": "[Cl][Ni][Cl]", "Relative activity (%)": "76%"}
{"compound": "[Cl][Fe][Cl]", "Relative activity (%)": "66%"}
{"compound": "[Cl-].[Cl-].[Co+2]", "Relative activity (%)": "52%"}
{"compound": "[Cl][Hg][Cl]", "Relative activity (%)": "0%"}

Batch request: Relative activity (%) for each of the following compounds.
1. [Cl][Mn][Cl]
2. [Cl-].[Cl-].[Zn+2]
3. [Cl][Cu][Cl]

Reply text:
["63%", "7%", "0%"]
